test: Plasma pharmacokinetics of vincristine in mice; details: mouse, in vivo, ip, 1 mg/kg, Plasma concentration of vincristine, Wild-type mice; 1 mg/kg i.p.; 4 h
Metric: concentration at 4 h (ng/mL)
The reply should be a number in ng/mL, with the unit left off.

**Query** Requested field: concentration at 4 h. Item: `CC[C@]1(O)C[C@H]2CN(CCc3c([nH]c4ccccc34)[C@@](C(=O)OC)(c3cc4c(cc3OC)N(C=O)[C@H]3[C@@](O)(C(=O)OC)[C@H](OC(C)=O)[C@]5(CC)C=CCN6CC[C@]43[C@@H]65)C2)C1`
**Result** 102

* * *

assay: Nilotinib levels in liver and DRG of mice; assay type: in vivo, mouse; settings: DBA/1LacJ, mouse, liver, oral, 100 mg/kg, Liver nilotinib, OATP1B2(-/-) mice
Metric: concentration at […] (ng/g)
The reply should be a number in ng/g, with the unit left off.

**Query** Requested field: concentration at […]. Item: Cc1cn(-c2cc(NC(=O)c3ccc(C)c(Nc4nccc(-c5cccnc5)n4)c3)cc(C(F)(F)F)c2)cn1 [Nilotinib, nilotinib]
**Result** 33700
